The measurements presented in this section are drawn from paper PMC11480844.

B1: H2-Kb / E8 (parent)
chain 1: GDSVTQTEGLVTVTEGLPVKLNCTYQTTYLTIAFFWYVQYLNEAPQVLLKSSTDNKRTEHQGFHATLHKSSSSFHLQKSSAQLSDSALYYCALNTNTGKLTFGDGTVLTVKP
chain 2: EAAVTQSPRNKVAVTGGKVTLSCNQTNNHNNMYWYRQDTGHGLRLIHYSYGAGSTEKGDIPDGYKASRPSQENFSLILELATPSQTSVYFCASGDWGAGTGQLYFGEGSKLTVL
chain 3: not shown
chain 4: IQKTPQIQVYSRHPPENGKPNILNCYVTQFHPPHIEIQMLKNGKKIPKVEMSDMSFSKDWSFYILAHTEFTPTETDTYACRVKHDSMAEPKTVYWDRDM
chain 5: SIINFEKL

- Variants of: B1
- assay.summary: % of reporter cells activated (NFAT-GFP), raw; note: test concentration or dose not given here
- applied.conditions: with E8; scale: % of reporter cells activated
reported.metric: ratio to parent

Here's what some known entries look like.
>>> data_value("chain 5 F5P")
1.03
>>> data_value("chain 5 E6A")
0.159
>>> data_value("chain 5 F5W")
2.35
>>> data_value("chain 5 K7T")
0.223

[A] chain 5 I2P
[B] chain 5 E6M
Between the two listed entries A and B , which has its ratio to parent at the higher number? API: response body contains the label of the selected item.
A
